// data source = PubChem BioAssay AID651733

# system tested: Perilipin-5 (Homo sapiens) + 1-acylglycerol-3-phosphate O-acyltransferase ABHD5 (Homo sapiens) (UniProt Q00G26+Q8WTS1)
# Sequence (Q00G26 whole entry, looked up, the tested form may be a part): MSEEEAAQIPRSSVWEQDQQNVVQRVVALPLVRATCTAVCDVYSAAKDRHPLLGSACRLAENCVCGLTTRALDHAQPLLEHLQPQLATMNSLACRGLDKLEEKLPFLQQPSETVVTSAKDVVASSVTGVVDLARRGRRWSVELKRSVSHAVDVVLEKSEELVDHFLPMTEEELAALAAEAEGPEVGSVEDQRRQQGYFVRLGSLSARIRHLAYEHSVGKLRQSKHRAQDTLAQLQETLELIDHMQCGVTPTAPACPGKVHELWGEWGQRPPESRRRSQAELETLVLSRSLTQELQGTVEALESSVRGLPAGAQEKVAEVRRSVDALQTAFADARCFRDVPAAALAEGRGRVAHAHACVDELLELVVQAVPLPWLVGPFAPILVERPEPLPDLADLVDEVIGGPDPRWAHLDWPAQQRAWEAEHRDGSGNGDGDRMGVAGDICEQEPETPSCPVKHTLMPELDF
# Sequence (Q8WTS1 whole entry, looked up, the tested form may be a part): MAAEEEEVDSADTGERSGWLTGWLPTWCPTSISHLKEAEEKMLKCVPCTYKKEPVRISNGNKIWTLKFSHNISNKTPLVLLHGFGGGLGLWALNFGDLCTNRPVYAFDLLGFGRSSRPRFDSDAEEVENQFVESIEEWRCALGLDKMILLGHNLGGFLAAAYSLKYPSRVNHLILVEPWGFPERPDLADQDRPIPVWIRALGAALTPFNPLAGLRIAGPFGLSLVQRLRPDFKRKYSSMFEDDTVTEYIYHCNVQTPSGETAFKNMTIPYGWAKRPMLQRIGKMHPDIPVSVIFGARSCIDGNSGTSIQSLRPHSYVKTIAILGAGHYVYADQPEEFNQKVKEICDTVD
# test protocol: blockers of ABHD5 binding to perilipin-5 – cell lysate, luminescence, proteins expressed in HEK293T, dose response (AID 651733);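 note: split Gaussia princeps luciferase complementation between ABHD5 and MLDP fusion proteins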
# study conditions: ABHD5-PLIN5 interaction
Active and inactive are the calls of the source. The rule behind the calls is not given here.
Log the outcome using a class from 1 (active), -1 (inactive)

The examples below pair each entry with its known result.
- compound: "FC(F)(F)c1cccc(NC(=S)N(CCCN2CCCC2)Cc2cccn2Cc2ccc(Cl)cc2)c1"
  qualitative label: -1
- compound: "O=C(/C(=C/O)N=Nc1ccc(Cl)cc1)c1ccncc1"
  qualitative label: 1
- compound: "COc1ccc(-c2cc(N)n(S(=O)(=O)c3c(F)c(F)c(F)c(F)c3F)n2)cc1OC"
  qualitative label: -1
- compound: "CN(C)CCCNC(=O)c1ccc(-c2nc(-c3ccc(Cl)cc3)cs2)cc1"
  qualitative label: -1
- compound: "COC(=O)c1cc(=O)n(-c2ccc(F)cc2)c(=Nc2ccc(F)cc2)s1"
  qualitative label: 1

Pending compound:
Tell me the assay call for CCOC(=O)C1C(OC(=O)c2ccccc2)CC2CCC1N2C (stereo unspecified) please.
1

====

# system tested: Perilipin-5 (Homo sapiens) + 1-acylglycerol-3-phosphate O-acyltransferase ABHD5 (Homo sapiens) (UniProt Q00G26+Q8WTS1)
# test protocol: blockers of ABHD5 binding to perilipin-5 – cell lysate, luminescence, proteins expressed in HEK293T, dose response (AID 651733)
# study conditions: ABHD5-PLIN5 interaction
parameter measured: IC50

- compound: "O=C(NC1CCCCC1)C(c1ccc(-c2ccccc2)cc1)n1c(=O)c(-c2ccco2)nc2ccccc21 (centres undefined)"
  parameter measured: "IC50"
  result: "4.1 µM"
- compound: "COc1ccc(C(C(=O)Nc2c(C)cccc2C)n2c(=O)c(-c3ccco3)nc3ccccc32)cc1 (centres undefined)"
  parameter measured: "IC50"
  result: "4.29 µM"

Report IC50 for "CCc1nnc(NC(=O)c2nc(S(=O)(=O)Cc3ccccc3)ncc2Cl)s1"
5.18 µM

In one line, give reported IC50 of the entry "C=CC(=O)N1c2ccccc2Sc2ccc(NC(=O)OCC)cc21" .
4.84 µM

====

# system tested: Perilipin-5 (Homo sapiens) + 1-acylglycerol-3-phosphate O-acyltransferase ABHD5 (Homo sapiens) (UniProt Q00G26+Q8WTS1)
# test protocol: blockers of ABHD5 binding to perilipin-5 – cell lysate, luminescence, proteins expressed in HEK293T, dose response (AID 651733);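 note: split Gaussia princeps luciferase complementation between ABHD5 and MLDP fusion proteins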
# study conditions: ABHD5-PLIN5 interaction
Active and inactive are the calls of the source. How the calls were made is not given here.
parameter measured: IC50

- compound: "CC(C)(C)NC(=O)C(C1CC1)n1c(=O)c(-c2ccco2)nc2ccccc21 (centres undefined)"
  result: "7.1 µM"
- compound: "CCCc1nnc(NC(=O)c2nc(S(=O)(=O)Cc3cccc(C)c3)ncc2Cl)s1"
  result: "4.91 µM"
- compound: "O=C(/C=C/c1ccccc1)CC(O)(c1ccccc1)C(F)(F)C(F)F (centres undefined)"
  result: "1.1 µM"
- compound: "CSc1nnc(NC(=O)c2nc(S(=O)(=O)Cc3ccccc3F)ncc2Cl)s1"
  result: "3.66 µM"
- compound: "CC(=O)Cc1cc(O)c2ccccc2c1OC(=O)c1ccc(Br)cc1"
  result: "4.1 µM"
- compound: "Cc1cccc(C)c1NC(=O)C(c1ccc(C#N)cc1)n1c(=O)c(-c2ccco2)nc2ccccc21 (centres undefined)"
  result: "3.4 µM"
- compound: "O=C(/C=C/c1ccc2c(c1)OCCCO2)c1ccccc1O"
  result: "5.14 µM"
- compound: "CCN(CC)CCOc1ccc(/C(=C(\\Cl)c2ccccc2)c2ccccc2)cc1"
  result: "2.39 µM"
- compound: "CC(=O)Oc1c(Cl)c(N2CCOCC2)c(OC(C)=O)c2ccccc12"
  result: "8.04 µM"
- compound: "CC1=CC(C)(C)Nc2ccc(OC(=O)CN3C(=O)c4cccc5cccc(c45)C3=O)cc21"
  result: "inactive"

Answer with the recorded IC50 of O=C(NC1CCCCC1)C(c1ccc(C(F)(F)F)cc1)n1c(=O)c(-c2ccco2)nc2ccccc21 (centres undefined) only.
3.81 µM

Give the value of IC50 reported for the following: COC/C=C/C1=CC2=CC(=O)C(C)(OC(=O)C3CCCC3)C(=O)C2=CO1 (centres undefined)
3.88 µM

Return value of IC50 for input "O=C1C(=O)c2c(C(=O)c3ccccc3)coc2-c2ccccc21" , no commentary.
5.97 µM

Query IC50 for "CN(C)CCN(Cc1ccco1)c1ccccn1"
4.4 µM

State its IC50 for this compound: "CCN1/C(=C/C=C/c2oc3ccc(-c4ccccc4)cc3[n+]2CC)Oc2ccc(-c3ccccc3)cc21"
1.12 µM

Give reported IC50 value for CCOC(=O)C1CCCN(C(=O)c2cc(Nc3ccc(OC)cc3)nc3ccccc23)C1 (centres undefined)
inactive

Give the reported value of IC50 for this record: CCCCCNC(=O)C(c1ccc(OC)cc1)n1c(=O)c(-c2ccco2)nc2ccccc21 (centres undefined)
3.4 µM

====

# system tested: Perilipin-5 (Homo sapiens) + 1-acylglycerol-3-phosphate O-acyltransferase ABHD5 (Homo sapiens) (UniProt Q00G26+Q8WTS1)
# test protocol: blockers of ABHD5 binding to perilipin-5 – cell lysate, luminescence, proteins expressed in HEK293T, dose response (AID 651733);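 note: split Gaussia princeps luciferase complementation between ABHD5 and MLDP fusion proteins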
# study conditions: ABHD5-PLIN5 interaction
Active and inactive are the calls of the source. The rule behind the calls is not given here.
Result category, one only: active, inactive

Consider the worked cases shown below.
- compound: "Cc1ccc(CS(=O)(=O)c2ncc(Cl)c(C(=O)Nc3nnc(C(C)C)s3)n2)cc1"
  qualitative label: "active"
- compound: "COc1ccc(NC(=O)c2cc3ccccc3cc2O)cc1"
  qualitative label: "inactive"
- compound: "CCCCNC(=O)Nc1ccc2c(c1)N(C)C(=O)c1ccccc1S2"
  qualitative label: "active"
- compound: "O=C(O)CC(O)(CC(=O)O)C(=O)O"
  qualitative label: "active"
- compound: "COc1cc(OC)cc(C(=O)NC(=S)N(Cc2ccccc2)C(C)C)c1"
  qualitative label: "inactive"
- compound: "CC(=O)Nc1ccc(S(=O)(=O)N2c3ccc(F)cc3CCC2C)cc1 (centres undefined)"
  qualitative label: "inactive"

I would be grateful if you could indicate the recorded call for CC1Sc2ccc(S(=O)(=O)N3CCC(C(=O)NCc4ccc(Cl)cc4)CC3)cc2NC1=O (centres undefined) .
inactive

Please state the recorded outcome for this compound: "CC(=O)Oc1c(Cl)cc(N(C(C)=O)S(=O)(=O)c2ccccc2)c2ccccc12"
active

// outcome(item) with item = CCC(c1nc2ccccc2[nH]1)n1c(=O)c(-c2ccco2)nc2ccccc21 (centres undefined)
active

For this compound, state the assay outcome: "CCOC(=O)c1c(NC(=O)/C=C/C(=O)O)sc(C)c1-c1ccc(C(C)(C)C)cc1"
active

Assay outcome for "COc1cc(/C=C/C(=O)c2ccc(Cl)s2)cc(OC)c1O" : what was it?
active

Status in this test for "CSc1nnc(NC(=O)c2nc(S(=O)(=O)Cc3cccc(C)c3)ncc2Cl)s1" ?
active

// return assay outcome for "CCSc1ccc2c(c1)N(CCCN1CCN(C)CC1)c1ccccc1S2"
active

State the result this test recorded for CCCCCCC=C1CCC(CN2CCCC2)C1=O (centres undefined) .
active

Record request — test call for Cc1cccc(C)c1NC(=O)C(c1ccncc1)n1c(=O)c(-c2ccco2)nc2ccccc21 (centres undefined)
inactive

====

# system tested: Perilipin-5 (Homo sapiens) + 1-acylglycerol-3-phosphate O-acyltransferase ABHD5 (Homo sapiens) (UniProt Q00G26+Q8WTS1)
# test protocol: blockers of ABHD5 binding to perilipin-5 – cell lysate, luminescence, proteins expressed in HEK293T, dose response (AID 651733);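 note: split Gaussia princeps luciferase complementation between ABHD5 and MLDP fusion proteins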
# study conditions: ABHD5-PLIN5 interaction
The source made the active and inactive calls. The rule behind the calls is not given here.
Reply using exactly one outcome from 1 (yes) = active, 0 (no) = inactive

Here's what some known entries look like.
- compound: "O=C(NCc1ccccc1)C(C1CC1)n1c(=O)c(-c2ccco2)nc2ccccc21 (stereo unspecified)"
  qualitative label: "0 (no)"
- compound: "CC1=CC(C)(C)Nc2ccc(OC(=O)CN3C(=O)CCC3=O)cc21"
  qualitative label: "1 (yes)"
- compound: "Cc1nc2c(o1)CCc1ccccc1C2N1CCN(C)CC1 (stereo unspecified)"
  qualitative label: "1 (yes)"
- compound: "CC(=O)Nc1ccc(OCc2cn(CC(=O)c3ccc(O)cc3)nn2)cc1"
  qualitative label: "1 (yes)"
- compound: "O=C(C[n+]1cccc(CNC(=O)c2ccc(OC(F)F)cc2)c1)Nc1cccc(C(F)(F)F)c1"
  qualitative label: "0 (no)"

Hello, I am checking results. What call was entered for "Cc1ccc(C(=O)/C=C/c2cc(Br)cc(Br)c2O)o1" ?
0 (no)

Please indicate how the test categorized "COCCN(CCOC)c1nc(N)c2c(N)nc3c(c2c1C#N)CC(=O)N3Cc1ccc(Cl)cc1" .
0 (no)
